- Tested Target: T1, human pIgR, full-length, on cells (human, UniProt P01833 19-764)
- T1 construct: whole, on cells; Used for the flow cytometry EC50 values (MDCK-hpIgR) and for the transcytosis read-outs; also called hpIgR; cell-surface hpIgR
- T1 sequence (P01833 19-764): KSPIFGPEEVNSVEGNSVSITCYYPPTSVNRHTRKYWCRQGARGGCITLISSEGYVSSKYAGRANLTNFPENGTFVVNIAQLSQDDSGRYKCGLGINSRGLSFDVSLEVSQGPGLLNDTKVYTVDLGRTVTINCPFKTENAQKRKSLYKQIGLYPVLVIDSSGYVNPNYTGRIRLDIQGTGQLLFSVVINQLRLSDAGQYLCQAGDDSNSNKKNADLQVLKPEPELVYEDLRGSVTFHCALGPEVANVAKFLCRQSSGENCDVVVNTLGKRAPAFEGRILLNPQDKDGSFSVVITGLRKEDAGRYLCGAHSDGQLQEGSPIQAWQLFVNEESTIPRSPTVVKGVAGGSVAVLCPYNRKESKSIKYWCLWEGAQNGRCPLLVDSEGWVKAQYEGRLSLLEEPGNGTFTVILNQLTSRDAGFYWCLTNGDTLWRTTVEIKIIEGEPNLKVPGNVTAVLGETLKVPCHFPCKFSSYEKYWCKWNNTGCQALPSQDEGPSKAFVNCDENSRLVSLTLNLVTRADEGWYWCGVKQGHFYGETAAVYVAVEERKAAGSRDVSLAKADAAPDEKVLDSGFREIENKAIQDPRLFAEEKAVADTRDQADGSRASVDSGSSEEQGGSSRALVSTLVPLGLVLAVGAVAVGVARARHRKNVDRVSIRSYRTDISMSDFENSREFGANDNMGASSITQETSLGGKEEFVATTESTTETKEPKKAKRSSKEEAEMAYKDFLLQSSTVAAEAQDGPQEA
- Assay Procedure: flow cytometry on MDCK-hpIgR cells; summary table, repeats Table 1
Recorded Endpoint: EC50 (nM)
Numeric only. Scale: nM

# binder VHH3-linker-mono-Fc protein (Fc fusion, made in CHO cells; also called VHH3-mono-Fc; hpIgR_021) QLQLVESGGGLVQPGGSLRLSCAASGSIFSINVMGWYRQAPGKQRELVARINGGGITHYAESVKGRFTISRDNAKNTVYLQMNSLKPEDTAAYYCKADVFGSSGYVETYWGQGTQVTVSSEPKTPKPQPQPQLQPQPNPTTESKSPKSPAPELLGGPSVFLFPPKPKDTLMISRTPEVTCVVVDVSHEDPEVKFNWYVDGVEVHNAKTKPREEQYNSTYRVVSVLTVLHQDWLNGKEYKCKVSNKALPAPIEKTISKAKGQPREPQVYTKPPSREEMTKNQVSLSCLVKGFYPSDIAVEWESNGQPENNYKTTVPVLDSDGSFRLASYLTVDKSRWQQGNVFSCSVMHEALHNHYTQKSLSLSPGK ; its EC50 = 6.4
